Provide the recorded IC50 for the entries that follow.
Molecular target: T1, BAFF (Sino biological, 10056-HNCH) (UniProt Q9Y275 134-285, biotinylated in the blocking ELISA (site not stated))
T1 construct: also called BLyS
T1 sequence (Q9Y275 134-285 limits assumed): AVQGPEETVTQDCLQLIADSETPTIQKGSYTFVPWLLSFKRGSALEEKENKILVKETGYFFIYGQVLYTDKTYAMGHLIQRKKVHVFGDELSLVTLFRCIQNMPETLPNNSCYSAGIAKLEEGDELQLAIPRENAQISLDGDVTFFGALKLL
Experiment: competition ELISA: fusion protein pre-mixed with biotinylated BAFF, added to coated BAFF-R
Give the number; nM is assumed, so skip it.

Exercise: Supply recorded IC50 for TACI-11-Fc (Fc fusion) SLSCRKEQGKFYDHLLRDCISCASICGQHPKQCAYFCENDKTHTCPPCPAPEAEGAPSVFLFPPKPKDTLMISRTPEVTCVVVDVSHEDPEVKFNWYVDGVEVHNAKTKPREEQYNSTYRVVSVLTVLHQDWLNGKEYKCKVSNKALPSSIEKTISKAKGQPREPQVYTLPPSRDELTKNQVSLTCLVKGFYPSDIAVEWESNGQPENNYKTTPPVLDSDGSFFLYSKLTVDKSRWQQGNVFSCSVMHEALHNHYTQKSLSLSPGK here.
Key: 2.62

Exercise: Supply reported IC50 belonging to this binder: TACI-9-Fc (Fc fusion, C-terminus of TACI-9 fused directly to the N-terminus of human IgG1 Fc; two identical polypeptide chains; expressed in 293E) SLSCRKEQGKFYDHLLRDCISCASICGQHPKQCAYFCENKLDKTHTCPPCPAPEAEGAPSVFLFPPKPKDTLMISRTPEVTCVVVDVSHEDPEVKFNWYVDGVEVHNAKTKPREEQYNSTYRVVSVLTVLHQDWLNGKEYKCKVSNKALPSSIEKTISKAKGQPREPQVYTLPPSRDELTKNQVSLTCLVKGFYPSDIAVEWESNGQPENNYKTTPPVLDSDGSFFLYSKLTVDKSRWQQGNVFSCSVMHEALHNHYTQKSLSLSPGK
Key: 2.09

Exercise: Quick one: give measured IC50 for TACI-10-Fc (Fc fusion, TACI-9 truncated C-terminally by 1 amino acid, fused directly to Fc) SLSCRKEQGKFYDHLLRDCISCASICGQHPKQCAYFCENKDKTHTCPPCPAPEAEGAPSVFLFPPKPKDTLMISRTPEVTCVVVDVSHEDPEVKFNWYVDGVEVHNAKTKPREEQYNSTYRVVSVLTVLHQDWLNGKEYKCKVSNKALPSSIEKTISKAKGQPREPQVYTLPPSRDELTKNQVSLTCLVKGFYPSDIAVEWESNGQPENNYKTTPPVLDSDGSFFLYSKLTVDKSRWQQGNVFSCSVMHEALHNHYTQKSLSLSPGK
Key: 2.7
